Values were extracted from the supplement of paper PMC9233669.

Test system: biotinyl-Ile-oxazolone
EXPERIMENTAL DETAILS: self-aminoacylation, catalytic enhancement (BIO) (fold over background); higher = more active; k-Seq, kA / k0A0; sequences stand for … in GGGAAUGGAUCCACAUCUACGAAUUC…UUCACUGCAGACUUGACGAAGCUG
Variants at the floor of the assay were thinned out.
Mark rule met for reported self-aminoacylation of 2 or greater; mark rule not met for anything smaller.

Below, 3 sequences whose answers are already recorded.
{"columns": ["POLYMER SEQUENCE", "TGT", "GROUP LABEL"],
 "data": [
  ["AGUACCCUAGUCAUCGAGUGA [Fam2.1 aminoacylation ribozyme variant]", "biotinyl-Ile-oxazolone", "rule met"],
  ["UUACUUCAGACAAUCGGUCUG [Fam1A.1 aminoacylation ribozyme variant]", "biotinyl-Ile-oxazolone", "rule not met"],
  ["CCACACUUCCAGCAAUCGCUC [Fam1B.1 aminoacylation ribozyme variant]", "biotinyl-Ile-oxazolone", "rule not met"]
]}

Exercise: Check the entry AUUCACCUAGGUCAACGGGUA [Fam2.2 aminoacylation ribozyme variant] : does self-aminoacylation equal or exceed 2?
Key: rule not met
